# tested.system: T1, MBP-KPNA7(E344Q) (human, UniProt A9QM74 1-516, E344Q)
# T1 construct: Substitution found in epilepsy patients (occurs in nature); also called KPNA7 mutant E344Q; E344Q KPNA7; source: E. coli BL21, purified (amylose resin, eluted with maltose, dialyzed)
# T1 sequence (A9QM74 whole entry E344Q): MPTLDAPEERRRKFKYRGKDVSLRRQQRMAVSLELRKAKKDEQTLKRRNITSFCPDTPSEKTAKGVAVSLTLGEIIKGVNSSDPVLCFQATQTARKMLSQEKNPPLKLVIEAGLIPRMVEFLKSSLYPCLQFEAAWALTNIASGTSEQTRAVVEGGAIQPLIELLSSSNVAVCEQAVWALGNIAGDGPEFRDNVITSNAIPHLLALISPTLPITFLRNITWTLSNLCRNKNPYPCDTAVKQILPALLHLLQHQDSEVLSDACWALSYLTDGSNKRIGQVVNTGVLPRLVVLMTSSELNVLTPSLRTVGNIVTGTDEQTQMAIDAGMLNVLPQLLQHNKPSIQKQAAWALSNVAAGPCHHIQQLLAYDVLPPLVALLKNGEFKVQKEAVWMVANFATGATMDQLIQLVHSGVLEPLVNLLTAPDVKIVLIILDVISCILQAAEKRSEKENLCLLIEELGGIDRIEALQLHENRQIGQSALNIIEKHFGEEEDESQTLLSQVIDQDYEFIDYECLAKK
# assay.notes: pull-down; bead binding assay with a range of GST-GFP-hnRNP R-bNLS concentrations (10 nM to 2.7 μM) on KPNA7 proteins; binding curve, apparent KD
# assay.conditions: both partners purified
property.name: Kd

Q: Returns the measured Kd for the input binder. Input: RGGNVGGKRKADGYNQPDSKRRQTN (domain or fragment, UniProt O43390 565-589, looked up, hnRNP R, bipartite NLS (bNLS, a.a. 565-589), cloned into pGEX-4T1-GFP; The limits are those that the text gives for the NLS; also called hnRNP R bNLS; hnRNP R-bNLS; source: E. coli BL21, purified (glutathione resin)) [GST-GFP-hnRNP R bipartite NLS]
Ans: ~223 nM
